From: patent US20120208809A1

Target: Pim-2 (Homo sapiens)
Construct: full-length human recombinant His6-labelled Pim-1, Pim-2 or Pim-3 protein; His6
Sequence (Q9P1W9 whole entry): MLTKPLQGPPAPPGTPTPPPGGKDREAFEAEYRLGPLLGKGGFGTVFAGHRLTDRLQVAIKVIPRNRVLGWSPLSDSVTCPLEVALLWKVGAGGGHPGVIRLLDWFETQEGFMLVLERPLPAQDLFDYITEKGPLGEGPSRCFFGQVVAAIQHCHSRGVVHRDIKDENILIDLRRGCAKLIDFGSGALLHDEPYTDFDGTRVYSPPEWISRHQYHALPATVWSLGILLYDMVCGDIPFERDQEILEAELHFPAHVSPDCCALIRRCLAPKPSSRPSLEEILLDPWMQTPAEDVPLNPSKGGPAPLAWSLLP
Experiment: TR-FRET assay of Pim kinase activity (phosphorylation of Bad Ser112), Pim-2
Conditions: ATP 40 μM, read-out: IC50 Pim2
Description: In order to determine the inhibition of Pim kinase activity, the compounds of the invention are tested in accordance with a routinely-used in-vitro TR-FRET assay (“Time Resolved-Fluorescence Resonance Energy Transfer”). […] For the assay, the following reagents are used: […]
ENDPOINT: IC50

Example entries begin here.
Give the measured IC50 of `O=C(NCc1nnn[nH]1)c1ccc(-c2c(F)cnc3[nH]c4cnc(-c5cccnc5)cc4c23)cc1` .
> 5000 nM

Give the measured IC50 of `CN(C)CCNC(=O)c1ccc(-c2c(F)cnc3[nH]c4cnc(-c5cnn(C)c5)cc4c23)cc1` .
< 100 nM

Give the measured IC50 of `O=C(NC1CC1)c1ccc(-c2c(F)cnc3[nH]c4cnc(-c5cccnc5)cc4c23)cc1` .
1000 to 5000 nM

Give the measured IC50 of `CN(C)CCCNC(=O)c1ccc(-c2c(F)cnc3[nH]c4cnc(-c5cnn(C)c5)cc4c23)cc1` .
< 100 nM

Give the measured IC50 of `CN(C)CCNC(=O)c1ccc(-c2ccnc3[nH]c4cnc(-c5cnn(C)c5)cc4c23)cc1` .
< 100 nM

New cases:
Give the measured IC50 of `Cc1n[nH]cc1CNC(=O)c1ccc(-c2c(F)cnc3[nH]c4cnc(-c5cccnc5)cc4c23)cc1` .
100 to 1000 nM

Give the measured IC50 of CC(CNC(=O)c1ccc(-c2c(F)cnc3[nH]c4cnc(-c5cccnc5)cc4c23)cc1)N1CCCC1 (stereo not shown) .
100 to 1000 nM

* * *

target: Pim-1 (Homo sapiens); construct: full-length human recombinant His6-labelled Pim-1, Pim-2 or Pim-3 protein; His6; assay: TR-FRET assay of Pim kinase activity (phosphorylation of Bad Ser112), Pim-1; conditions: ATP 40 μM, read-out: IC50 Pim1
Sequence (P11309 whole entry): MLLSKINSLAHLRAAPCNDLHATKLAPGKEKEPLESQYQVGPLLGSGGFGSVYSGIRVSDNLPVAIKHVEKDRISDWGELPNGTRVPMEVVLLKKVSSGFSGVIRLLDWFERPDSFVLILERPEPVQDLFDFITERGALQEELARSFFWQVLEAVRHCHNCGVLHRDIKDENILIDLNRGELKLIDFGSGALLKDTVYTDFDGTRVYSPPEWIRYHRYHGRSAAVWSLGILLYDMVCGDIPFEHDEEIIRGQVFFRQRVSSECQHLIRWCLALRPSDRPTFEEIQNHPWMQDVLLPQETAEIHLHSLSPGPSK
Reported IC50 values for the following molecules.

Example entries begin here.
Give the measured IC50 of `O=C(c1cccc(-c2c(F)cnc3[nH]c4cnc(-c5cccnc5)cc4c23)c1)N1CCOCC1` .
100 to 1000 nM

Give the measured IC50 of `CN(C)CCCCNC(=O)c1ccc(-c2c(F)cnc3[nH]c4cnc(-c5cccnc5)cc4c23)cc1` .
< 100 nM

New cases:
Give the measured IC50 of `O=C(NCCCN1CCCC1=O)c1ccc(-c2c(F)cnc3[nH]c4cnc(-c5cccnc5)cc4c23)cc1` .
100 to 1000 nM

Give the measured IC50 of `CN1CC(NC(=O)c2ccc(-c3c(F)cnc4[nH]c5cnc(-c6cccnc6)cc5c34)cc2)C1` .
< 100 nM

Give the measured IC50 of `CN1CCC(N(C)C(=O)c2ccc(-c3c(F)cnc4[nH]c5cnc(-c6cccnc6)cc5c34)cc2)CC1` .
< 100 nM

Give the measured IC50 of CN1CCC2(CCN(C(=O)c3ccc(-c4c(F)cnc5[nH]c6cnc(-c7cccnc7)cc6c45)cc3)C2)C1 (stereo not drawn) .
< 100 nM

Give the measured IC50 of `O=C(NCCNc1ccccc1)c1ccc(-c2c(F)cnc3[nH]c4cnc(-c5cccnc5)cc4c23)cc1` .
100 to 1000 nM

Give the measured IC50 of `O=C(c1ccc(-c2c(F)cnc3[nH]c4cnc(-c5cccnc5)cc4c23)cc1)N1CCOCC1` .
< 100 nM

Give the measured IC50 of CC(CN(C)C)NC(=O)c1ccc(-c2c(F)cnc3[nH]c4cnc(-c5cccnc5)cc4c23)cc1 (stereo not drawn) .
< 100 nM

Give the measured IC50 of `CN1CCN(CCNC(=O)c2ccc(-c3c(F)cnc4[nH]c5cnc(-c6cccnc6)cc5c34)cc2)CC1` .
< 100 nM

Give the measured IC50 of `COCCOc1cnc2[nH]c3cnc(-c4cccnc4)cc3c2c1-c1ccc(C(=O)NCCN(C)C)cc1` .
< 100 nM

Give the measured IC50 of O=C(c1ccc(-c2c(F)cnc3[nH]c4cnc(-c5cccnc5)cc4c23)cc1)N1CCC(N2CCCC2)C1 (stereo not drawn) .
< 100 nM

Give the measured IC50 of CC1CCCCN1CCNC(=O)c1ccc(-c2c(F)cnc3[nH]c4cnc(-c5cccnc5)cc4c23)cc1 (stereo not drawn) .
< 100 nM

Give the measured IC50 of `NCC(F)(F)CNC(=O)c1ccc(-c2c(F)cnc3[nH]c4cnc(-c5cccnc5)cc4c23)cc1` .
< 100 nM

Give the measured IC50 of `CN(C)CCNC(=O)c1ccc(-c2ccnc3[nH]c4cnc(-c5cnn(C)c5)cc4c23)cc1` .
< 100 nM
